Origin of values: ChEMBL document CHEMBL2406952

# EXPERIMENTAL_SYSTEM: Vitamin D3 receptor (Homo sapiens)
# Sequence (whole entry): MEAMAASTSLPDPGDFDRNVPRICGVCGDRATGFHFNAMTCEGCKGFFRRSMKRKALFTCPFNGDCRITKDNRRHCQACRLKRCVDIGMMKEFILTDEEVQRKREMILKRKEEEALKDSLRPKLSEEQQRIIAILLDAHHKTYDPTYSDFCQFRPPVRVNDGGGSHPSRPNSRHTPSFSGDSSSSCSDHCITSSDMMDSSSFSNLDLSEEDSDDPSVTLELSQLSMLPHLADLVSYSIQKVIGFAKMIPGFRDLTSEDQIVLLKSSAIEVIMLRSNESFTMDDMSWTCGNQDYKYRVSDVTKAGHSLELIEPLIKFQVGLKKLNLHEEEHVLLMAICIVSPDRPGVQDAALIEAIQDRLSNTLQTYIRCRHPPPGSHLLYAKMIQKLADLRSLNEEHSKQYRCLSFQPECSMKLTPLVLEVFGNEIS
# ASSAY_OVERVIEW: Activation of VDR in human DaOY cells assessed as upregulation of Cyp24A1 mRNA expression at 5 uM after 48 hrs by RT-PCR analysis relative to DMSO-treated control
# Type: cell-based
METRIC_NAME: fold change (FC)
Reply briefly: the number, and no unit.

Worked set:
{"columns": ["CHEMICAL_STRING", "fold change (FC)"],
 "data": [
  ["C=C1CC[C@H](O)C/C1=C/C=C1\\CCC[C@]2(C)[C@@H]([C@H](C)CCCC(C)C)CC[C@@H]12", 149],
  ["CC(C)CCC[C@@H](C)[C@H]1CC[C@H]2[C@@H](OC(=O)c3cccc(N)c3)CCC[C@]12C", 0.5],
  ["CC(C)CCC[C@@H](C)[C@H]1CC[C@H]2[C@@H](OC(=O)c3cccc(O)c3)CCC[C@]12C", 0.4]
]}

Proceed to the following item.
Quick one: give measured fold change (FC) for CC(C)CCC[C@@H](C)[C@H]1CC[C@H]2[C@@H](O)CCC[C@]12C
0.8

====

Each entry below carries its reported IC50.
# ASSAY_OVERVIEW: Inhibition of Hedgehog signaling in mouse C3H10T1/2 cells assessed as downregulation of Gli1 mRNA expression after 24 hrs by RT-PCR analysis
# Type: cell-based
# PROTOCOL_CONDITIONS: C3H 10T1/2, 24 h
Quick reminder: number only, in nM, skip the unit.

Reference set, count: 3
{"columns": ["CHEMICAL_STRING", "IC50 (nM)"],
 "data": [
  ["C=C1CC[C@H](O)C/C1=C/C=C1\\CCC[C@]2(C)[C@@H]([C@H](C)CCCC(C)C)CC[C@@H]12", 4100],
  ["CC(C)CCC[C@@H](C)[C@H]1CC[C@H]2[C@@H](OC(=O)c3cccc(O)c3)CCC[C@]12C", 740],
  ["CC(C)CCC[C@@H](C)[C@H]1CC[C@H]2[C@@H](O)CCC[C@]12C", 3100]
]}

--- query ---
Using the record for CC(C)CCC[C@@H](C)[C@H]1CC[C@H]2[C@@H](OC(=O)c3cccc(N)c3)CCC[C@]12C , state its measured IC50.
2800

====

The entries below come with measured fold change (FC) values attached.
# EXPERIMENTAL_SYSTEM: Vitamin D3 receptor (Mus musculus)
# ASSAY_OVERVIEW: Activation of VDR in mouse ASZ001 cells assessed as upregulation of Cyp24A1 mRNA expression at 5 uM after 48 hrs by RT-PCR analysis relative to DMSO-treated control
# Assay type: cell-based
Answer as a number with no unit attached.

{"columns": ["MOLECULE", "METRIC_NAME", "OBSERVED_MEASUREMENT"],
 "data": [
  ["CC(C)CCC[C@@H](C)[C@H]1CC[C@H]2[C@@H](OC(=O)c3cccc(N)c3)CCC[C@]12C", "fold change (FC)", 2.5],
  ["CC1=C2C[C@H]3[C@@H](CC=C4C[C@@H](O)CC[C@@]43C)[C@@H]2CC[C@]12O[C@@H]1C[C@H](C)CN[C@H]1[C@H]2C [CYCLOPAMINE]", "fold change (FC)", 0.8],
  ["CC(C)CCC[C@@H](C)[C@H]1CC[C@H]2[C@@H](OC(=O)c3cccc(O)c3)CCC[C@]12C", "fold change (FC)", 1.9],
  ["CC(C)CCC[C@@H](C)[C@H]1CC[C@H]2[C@@H](O)CCC[C@]12C", "fold change (FC)", 2.4]
]}

Then there is this molecule:
Input CC(C)CCC[C@@H](C)[C@H]1CC[C@H]2[C@@H](OC(=O)c3ccccc3)CCC[C@]12C , output reported fold change (FC).
1.1
